Target: UniProt:P14416
Sequence (P14416 whole entry): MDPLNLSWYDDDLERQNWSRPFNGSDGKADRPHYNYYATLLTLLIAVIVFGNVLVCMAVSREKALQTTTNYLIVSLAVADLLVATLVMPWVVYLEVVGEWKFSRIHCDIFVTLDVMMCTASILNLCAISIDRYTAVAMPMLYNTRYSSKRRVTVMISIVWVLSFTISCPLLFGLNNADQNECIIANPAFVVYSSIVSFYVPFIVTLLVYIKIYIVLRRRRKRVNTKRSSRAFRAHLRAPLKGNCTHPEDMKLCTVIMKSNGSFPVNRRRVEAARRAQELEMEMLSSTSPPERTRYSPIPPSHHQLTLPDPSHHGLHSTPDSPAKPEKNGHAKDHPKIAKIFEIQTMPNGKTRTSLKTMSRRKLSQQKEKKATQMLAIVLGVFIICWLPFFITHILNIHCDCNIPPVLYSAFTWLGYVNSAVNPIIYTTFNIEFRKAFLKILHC
Experiment: Inhibition of human dopamine D2L receptor expressed in intact CHO FlpIn cells assessed as inhibition of receptor-mediated mediated ERK1/2 phosphorylation by Alpha-Screen plate-based assay
Format: cell-based
Settings: read-out: IC50
measured attribute: IC50

Example entries and their recorded answers appear below.
Prompt line: For the compound `CN1CCN(C2=Nc3cc(Cl)ccc3N(NC(=O)CCCCCCCCC(=O)NN3c4ccc(Cl)cc4N=C(N4CCN(C)CC4)c4ccccc43)c3ccccc32)CC1` , report IC50.
Response line: > 10 µM

Prompt line: For the compound `CN1CCN(C2=Nc3cc(Cl)ccc3N(C(=O)CCCCCCCCCCCCC(=O)N3c4ccc(Cl)cc4N=C(N4CCN(C)CC4)c4ccccc43)c3ccccc32)CC1` , report IC50.
Response line: > 10 µM

***
Prompt line: For the compound `CN1CCN(C2=Nc3cc(Cl)ccc3N(C(=O)CCCCCCCCCCCCCCCCC(=O)N3c4ccc(Cl)cc4N=C(N4CCN(C)CC4)c4ccccc43)c3ccccc32)CC1` , report IC50.
Response line: > 10 µM
